The entries that follow carry log10(Ki) values tested on 5-hydroxytryptamine receptor 1A (Rattus norvegicus, UniProt P19327), drawn from several published reports.
Sequence (P19327 whole entry): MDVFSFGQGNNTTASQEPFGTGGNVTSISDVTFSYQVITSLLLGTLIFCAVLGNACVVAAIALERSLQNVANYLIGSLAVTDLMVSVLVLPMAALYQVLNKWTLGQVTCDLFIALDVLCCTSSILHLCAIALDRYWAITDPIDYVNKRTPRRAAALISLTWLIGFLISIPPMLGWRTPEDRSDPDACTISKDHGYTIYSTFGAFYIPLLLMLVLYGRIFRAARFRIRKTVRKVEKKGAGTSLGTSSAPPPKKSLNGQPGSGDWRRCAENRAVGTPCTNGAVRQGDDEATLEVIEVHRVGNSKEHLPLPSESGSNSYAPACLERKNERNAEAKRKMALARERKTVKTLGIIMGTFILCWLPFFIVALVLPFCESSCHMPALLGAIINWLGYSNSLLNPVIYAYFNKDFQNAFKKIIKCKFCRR
Values are log10 of Ki in nM.

The following molecules have reported results that may help.
> print(dat)
                                   molecule  quantitative.readout
1    c1ccc(CCCCN2CCN(c3cccc4c3OCCO4)CC2)cc1                 -0.49
2  O=C(CCN1CCN(c2cccc(Cl)c2Cl)CC1)c1cc2c3c(c1)CCN3C(=O)CC2                  1.91
3  O=C(c1ccc(F)c(Cl)c1)N1CCC(F)(CNCc2cccc(-n3cccn3)n2)CC1                 -0.31

Batch lookup, log10(Ki) per entry.
1. O=S(=O)(NCCCCN1CCc2ccccc2C1)c1cnc2ccccc2c1
2. COc1ccccc1N1CCN(CCNc2ccc3c4c(=O)n(C)nc(Cl)c4cn3n2)CC1
3. O=C(CCCCCN1CCN(c2nc3ccccc3o2)CC1)c1ccccc1O
4. O=c1c2cnc3ccccc3c2ncn1CCCN1CCN(c2ccccc2)CC1
5. COc1ccccc1N1CCN(CCCCc2ccc3c(c2)OCC(=O)N3CCN2CCC(=C(c3ccc(F)cc3)c3ccc(F)cc3)CC2)CC1

Result:
2.48
1.21
3.16
1.67
1.69

Batch lookup, log10(Ki) per entry.
1. COc1ccccc1N1CCN(Cc2ccc(CN3CCCCCCC3=O)o2)CC1.O=C(O)CCC(=O)O
2. COc1ccc(-c2c(=O)n(CCCCN3CC=C(c4c[nH]c5ccc(F)cc45)CC3)c(=O)n3ccccc23)cc1
3. COc1ccccc1N1CCN(CCCCNC(=O)c2ccc(-c3ccc(N)cc3)cc2)CC1

Result:
1.51
1.91
1.10
